// provenance: PubChem BioAssay

# TESTED_ON: Streptavidin (Streptomyces avidinii)
# ASSAY_NOTES: streptavidin binders on small-molecule microarray, primary screen, artefact control for SMM compound annotation, biophysical, 635/667 nm fluorescence (AID 1147);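 note: signal reflects streptavidin binding to arrayed compounds as a control protein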
# PROTOCOL_CONDITIONS: streptavidin binding, higher = more signal
ATTRIBUTE_MEASURED: composite z-score

Recorded composite z-score of `COCCCNC(=O)[C@@]1(Cc2ccccc2I)c2ccccc2C(=O)N(Cc2ccccc2C(F)(F)F)[C@H]1c1ccc(CO)cc1` , please. -0.253

I'd like to know its composite z-score. The compound in question is `CC(C)(C)OC(=O)CC[C@]1(C(N)=O)N=C(c2ccc(OCCCO)cc2)O[C@H]1c1ccccc1N=[N+]=[N-]` 1.49

Form field: reported composite z-score of `COCCOC(=O)N1C(=O)[C@@]2(c3cc(C#CCNC(N)=O)ccc31)[C@H](c1ccc(O)cc1)N1[C@H](c3ccccc3)[C@H](c3ccccc3)OC(=O)[C@H]1[C@@H]2C(=O)N1CCc2cc(OC)c(OC)cc2C1` 0.468

// lookup composite z-score for `C=CCOC(=O)[C@H]1[C@@H]2C(=O)O[C@@H](c3ccccc3)[C@@H](c3ccccc3)N2[C@@H](c2ccc(OCCOC(=O)[C@H]3C[C@H]4C(=O)NCC(=O)N4[C@H]3c3ccc(O)cc3)cc2)[C@]12C(=O)Nc1ccccc12` 0.341

Name the recorded composite z-score for `CCc1cccc(NC(=O)O[C@H]2[C@H](OC(=O)Nc3ccccc3-c3ccccc3)[C@H](OC(=O)Nc3ccccc3-c3ccccc3)[C@@H](OC)O[C@@H]2CO)c1` . 0.284

Param item = `CC(C)[Si]1(C(C)C)OCc2cc(-c3ccc(-c4ccc(Cl)c(Cl)c4)o3)nc(-c3ccc(Oc4ccccc4)cc3)c21` ; retrieve measured composite z-score. -0.767

###

# ASSAY_NOTES: binders of probe aFGF10 on microarray, primary screen, stem cell growth factor project, biochemical, small-molecule microarray, fluorescence 635/667 (AID 1071);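 note: score merges 667 nm spot intensity and signal to noise from triplicate slides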
# PROTOCOL_CONDITIONS: higher = more signal
// map composite z-score to label using low band = under -0.1, middle band = from -0.1 up to 0.7, high band = 0.7 and over

CO[C@H]1O[C@H](CO)[C@@H](OC(=O)CCc2ccccc2)[C@@H]2OC(=O)[C@@H](Cc3ccc4ccccc4c3)C/C=C/C[C@H](Cc3ccc4ccccc4c3)C(=O)O[C@@H]12 ... middle band
[N-]=[N+]=NCc1ccccc1[C@H]1OC(c2ccc(OCCCO)cc2)=N[C@@]1(Cc1ccccc1N=[N+]=[N-])C(N)=O ... high band
[N-]=[N+]=NCc1ccccc1C[C@]1(C(=O)N2CCCCC2)COC(c2ccc(OCCCO)cc2)=N1 ... high band

With those in mind, consider the next compound.
Band assignment needed for `CCCCC(=C=CC[C@H](O)c1ccccc1OCCO)CCO` please. middle band

###

# ASSAY_NOTES: osmotic lysis modulators in infected erythrocytes, primary screen, PSAC antagonist project, cell-based, P. falciparum Indochina, OD700, 3 h (AID 1156)
# PROTOCOL_CONDITIONS: higher = more signal, called active from +8 up or from −8 down
ATTRIBUTE_MEASURED: z-score
I only need the number, thanks.

C[N+](C)(C)CCCC[C@@H]1NC(=O)[C@H]2C[C@@H](C(=O)NCCCCCN)[C@@H](c3ccc(O)cc3)N2C1=O ... -3.73
C=CCNC(=O)[C@H]1[C@@H]2C(=O)O[C@@H](c3ccccc3)[C@@H](c3ccccc3)N2[C@@H](c2ccc(OCCO)cc2)[C@]12C(=O)N(C(=O)OCCOC)c1ccc(C#CCNC(N)=O)cc12 ... 1.09

So what's the measured z-score for this one? `COc1ccc([Si](C)(C)[C@H]2[C@H](CC(=O)N(CCO)Cc3ccccc3)O[C@@]3(C(=O)N(c4ccccc4)c4ccccc43)[C@@H]2C)cc1` 0.495

###

# ASSAY_NOTES: A549 cell viability effects, profiling panel, calcein-AM fluorescence, 48 h, basal (AID 1162); note: test concentration not given here
# PROTOCOL_CONDITIONS: higher = more signal
ATTRIBUTE_MEASURED: z-score
Give the figure only, with no unit attached.

Recorded z-score, per entry:
COc1ccc([Si](C)(C)[C@H]2[C@H](CC(=O)N(CCO)Cc3ccccc3)O[C@@]3(C(=O)N(Cc4cccc(N5CCCCC5=O)c4)c4ccccc43)[C@@H]2C)cc1 ... -0.166
COc1ccc([Si](C)(C)[C@H]2[C@H](CC(=O)N(CCO)Cc3ccccc3)O[C@@]3(C(=O)N(c4ccccc4)c4ccccc43)[C@@H]2C)cc1 ... -3.41
COC(=O)Cn1c(C(=O)N(C)C)cc2c1C[C@H]1CN(C(=O)c3ccccc3)[C@@](Cc3ccccc3)(C(=O)OC)[C@@H]21 ... -0.314
CC(C)N1C(=O)[C@@]2(Cc3ccccc31)c1ccccc1C(=O)N(Cc1ccccc1)[C@H]2c1ccc(CO)cc1 ... -0.128
O=C1N(Cc2ccccc2)Cc2ccccc2C[C@@]12COC(c1ccc(OCCCO)cc1)=N2 ... -1.62

Form field: reported z-score of COC(=O)[C@H](Cc1ccccc1)N1CC(C)(OC)O[C@@H](Cc2ccccc2)[C@H]1/C=C/C1CC1 (some centres undefined) -0.572

Data request, read-out z-score, for `CCCCCCc1nc(-c2ccc(OC)nc2)c(C)c2c1[Si](C(C)C)(C(C)C)OC2` -0.405

Given `COc1ccc([Si](C)(C)[C@@H]2[C@@H](CC(=O)N(CCO)Cc3ccccc3)O[C@]3(C(=O)N(Cc4cccc(I)c4)c4ccccc43)[C@H]2C)cc1` , state its recorded z-score. -1.09

Given the molecule `[N-]=[N+]=NCc1ccccc1[C@H]1OC(c2ccc(OCCCO)cc2)=N[C@@]1(CCS(=O)(=O)c1ccccc1)C(=O)O` , what is its reported z-score? 0.0952

Look up z-score: `COC(=O)[C@@]1(Cc2ccc(F)cc2)[C@H]2c3cc(C(=O)N(C)C)n(Cc4ccsc4Br)c3C[C@H]2CN1C(=O)c1ccccc1` -0.981

If you can, please state the reported z-score value of `COCCOC(=O)N1C(=O)[C@@]2(c3cc(C#CCC(C(=O)OC)C(=O)OC)ccc31)[C@H](c1ccc(O)cc1)N1[C@H](c3ccccc3)[C@H](c3ccccc3)OC(=O)[C@H]1[C@@H]2C(=O)N1CCc2cc(OC)c(OC)cc2C1` . 0.393

Fill in the blank: the reported z-score of CC(C)c1ccc(NN2C(C(O)C3CCCCC3)C=CC3C(=O)N(c4ccccc4)C(=O)C32)cc1 (centres undefined) is ____. 0.19

Give its z-score value. Item: `Cc1ccc(S[C@]2(C(=O)NCc3ccccc3)CC(=O)N(Cc3ccccc3Cl)[C@@H]2c2ccc(CO)cc2)cc1` -0.643

// query z-score value for entry `[N-]=[N+]=NCc1ccccc1[C@H]1OC(c2ccc(OCCCO)cc2)=N[C@@]1(CCS(=O)(=O)c1ccccc1)C(=O)NCCN1CCOCC1` 1.69

###

# ASSAY_NOTES: splicing luciferase reporter signal modulators, primary screen, spliceosome inhibition project, cell-based, HEK293, splice +/- reporter (AID 1101);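 note: HEK293 cells carrying a splicing-competent luciferase reporter gene; test concentration not given here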
# PROTOCOL_CONDITIONS: luminescence, 24 h, higher = more signal, called active from +8 up or from −8 down
Active and inactive are the calls of the source.
# maps each entry to its z-score

The following molecules have reported results that may help.
COCCOC(=O)N1C(=O)[C@@]2(c3cc(C#CCNC(N)=O)ccc31)[C@H](c1ccccc1OCCO)N1[C@H](c3ccccc3)[C@H](c3ccccc3)OC(=O)[C@H]1[C@@H]2C(=O)N1CCCCCCC1 ... -0.402 (inactive)
C[C@H]1C2[C@H](Cc3ccccc3)NC(=O)[C@]23C(=O)N[C@@H](Cc2ccccc2)C(=O)N2CCC[C@H]2C(=O)NC/C=C/CC/C=C/C3[C@@H]2O[C@]12C (stereo partly drawn) ... 0.437 (inactive)

Dear colleague, I am looking for the recorded z-score of the following molecule: `COc1ccc([Si](C)(C)[C@H]2[C@H](CC(=O)N3CCC[C@H]3CO)O[C@@]3(C(=O)N(C)c4c(Br)cc(C)cc43)[C@@H]2C)cc1` 0.00593 (inactive)

Dear colleague, I am looking for the recorded z-score of the following molecule: `C=C(CCCC)/C(=C/C[C@@H](OC(C)=O)c1ccc(OCCO)cc1)c1cc(C(=O)OC)ccc1OC` 0.374 (inactive)

Could you tell me which z-score is on file for `COc1cc(Cc2cc3c(c(CCc4ccccc4)n2)[Si](C(C)C)(C(C)C)O[C@H]3c2ccccc2)cc(OC)c1OC` ? -1.06 (inactive)

Dear colleague, I am looking for the recorded z-score of the following molecule: `CC(C)C[C@@H]1NC(=O)[C@@H]2C[C@H](C(=O)NCCCCCNC(=O)CS)[C@H](c3ccc(O)cc3)N2C1=O` -3.37 (inactive)

What does the record list as z-score for `O=C(N1CCOCC1)[C@]1(CCS(=O)(=O)c2ccccc2)N=C(c2ccc(OCCCO)cc2)O[C@@H]1c1ccccc1` ? -1.04 (inactive)

Look up z-score: `COc1ccc([Si](C)(C)[C@@H]2[C@@H](CC(=O)N3Cc4ccccc4C[C@H]3CO)O[C@]3(C(=O)N(Cc4ccc(I)cc4)c4ccccc43)[C@H]2C)cc1` -1.36 (inactive)

What value of z-score has been recorded for this entry: O=C1C2C=CC(C(O)C(c3ccccc3)c3ccccc3)N(Nc3ccccc3F)C2C(=O)N1c1ccccc1 (stereo not drawn) 0.34 (inactive)

Give the measured z-score of `C=CCNC(=O)[C@@H]1[C@H]2C(=O)O[C@H](c3ccccc3)[C@H](c3ccccc3)N2[C@H](c2ccc(OCCO)cc2)[C@@]12C(=O)Nc1ccc(C#CC3=CCCCC3)cc12` . -0.384 (inactive)

Sample `COc1ccc([Si](C)(C)[C@H]2[C@H](CC(=O)N3CCC[C@H]3CO)O[C@@]3(C(=O)N(C)c4ccccc43)[C@@H]2C)cc1` — what was its z-score? 0.361 (inactive)

Field request: z-score | item: `C=C(CC1([C@@H](NP(=O)(c2ccccc2)c2ccccc2)[C@H]2C[C@@H]2CCCC)CC1)c1cccc(OC)c1` -2.52 (inactive)

Using the record for `CCOC(=O)C[C@H]1[C@H](OC(=O)Cc2ccc3c(c2)OCO3)[C@@H](NC(=O)CC(C)C)c2cc(OCCCO)ccc2N1C(=O)c1ccc2ccccc2n1` , report its z-score. -0.881 (inactive)
